target: HLA-B*3501 (human); conditions: remark: other sources report otherwise
Metric Name: pIC50
In plain terms, pIC50 is the concentration in mol/L turned into minus its base-10 logarithm.

Query string: Which pIC50 value belongs to LPINALSNSL (modifications not checked) [Peptide 29.0085, HCV NS5 2474] ?
Result string: 4.74

Sourced from patent US20090304746A1
